Reported Mean plasma Cmax [daptomycin] ± SD values follow for various compounds
# PROTOCOL: Daptomycin oral delivery, plasma daptomycin by HPLC
# Format: in vivo, Sprague-Dawley rats
# STATED CONDITIONS: rats, delivery agent compound dose 200 mg/kg, daptomycin dose 50 mg/kg, volume dose 1 mL/kg
# output: bare number, implied unit ng/mL

Give reported Mean plasma Cmax [daptomycin] ± SD value for "O=C(O)CCCCCOc1ccccc1"
9500

Give reported Mean plasma Cmax [daptomycin] ± SD value for "O=C(O)CCCOc1ccccc1"
14200

Give reported Mean plasma Cmax [daptomycin] ± SD value for "NC(=O)c1ccccc1OCCCCCCCC(=O)O"
3060

Give reported Mean plasma Cmax [daptomycin] ± SD value for "O=C(O)c1ccc(COc2ccccc2O)cc1"
5070

Give reported Mean plasma Cmax [daptomycin] ± SD value for "CC(=O)c1cc(O)ccc1OCCCCCCCC(=O)O"
8590

Give reported Mean plasma Cmax [daptomycin] ± SD value for "O=C(O)CCCCCOc1ccccc1O"
7082

Next:
Give reported Mean plasma Cmax [daptomycin] ± SD value for "CC(=O)c1ccccc1OCCCCCC(=O)O"
13270

Give reported Mean plasma Cmax [daptomycin] ± SD value for "CC(=O)c1ccccc1OCCCCCCCC(=O)O"
16110
